# TARGET ENTITY: D(2) dopamine receptor (Homo sapiens)
# Sequence (P14416 whole entry): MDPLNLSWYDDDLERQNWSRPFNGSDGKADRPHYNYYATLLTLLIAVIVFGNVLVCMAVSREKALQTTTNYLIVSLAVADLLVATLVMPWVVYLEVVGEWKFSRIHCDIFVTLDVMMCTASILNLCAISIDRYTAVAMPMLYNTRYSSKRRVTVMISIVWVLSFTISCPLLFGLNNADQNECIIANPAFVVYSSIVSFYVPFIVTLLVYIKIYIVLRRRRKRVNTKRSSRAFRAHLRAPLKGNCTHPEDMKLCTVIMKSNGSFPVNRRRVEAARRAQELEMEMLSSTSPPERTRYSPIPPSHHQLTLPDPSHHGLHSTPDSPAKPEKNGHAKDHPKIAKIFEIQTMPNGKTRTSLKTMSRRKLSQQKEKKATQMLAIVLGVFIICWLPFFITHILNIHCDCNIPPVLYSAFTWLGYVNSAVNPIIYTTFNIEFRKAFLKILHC
# ASSAY METHOD TEXT: Displacement of [3H]Spiperone from human dopamine D2 long receptor
pKi: −log10 of the molar value.
EXPERIMENTAL ENDPOINT: pKi

- STRUCTURE STRING: "Cc1ccc(CNCC2(F)CCN(C(=O)c3coc4ccccc34)CC2)nc1"
  RECORDED VALUE: 4.57
- STRUCTURE STRING: "Cc1ccc(CNCC2(F)CCN(C(=O)c3csc4ccccc34)CC2)nc1"
  RECORDED VALUE: 4.70
- STRUCTURE STRING: "Cc1ccc(CNCC2(F)CCN(C(=O)c3ccc(F)c(Cl)c3)CC2)nc1"
  RECORDED VALUE: 4.82
- STRUCTURE STRING: "Cc1ccc(CNCC2(F)CCN(C(=O)c3cc(Br)cs3)CC2)nc1"
  RECORDED VALUE: 4.14

###

# TARGET ENTITY: 5-hydroxytryptamine receptor 2A (Sus scrofa, UniProt P50129)
# Sequence (P50129 whole entry): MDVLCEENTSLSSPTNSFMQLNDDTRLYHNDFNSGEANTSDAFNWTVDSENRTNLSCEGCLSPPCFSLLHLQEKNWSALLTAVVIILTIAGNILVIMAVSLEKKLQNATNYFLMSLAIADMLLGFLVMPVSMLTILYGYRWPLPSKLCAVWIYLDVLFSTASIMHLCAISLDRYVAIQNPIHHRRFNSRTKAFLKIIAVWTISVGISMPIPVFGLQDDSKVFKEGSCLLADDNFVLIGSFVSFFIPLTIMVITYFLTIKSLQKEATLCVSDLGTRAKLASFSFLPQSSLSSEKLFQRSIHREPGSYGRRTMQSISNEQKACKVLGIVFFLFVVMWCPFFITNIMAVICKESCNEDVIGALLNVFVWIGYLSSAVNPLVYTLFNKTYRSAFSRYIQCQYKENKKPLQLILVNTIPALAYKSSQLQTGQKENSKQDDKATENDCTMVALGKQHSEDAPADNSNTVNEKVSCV
Documented Ki across a set of compounds
EXPERIMENTAL ENDPOINT: Ki (µM)

- STRUCTURE STRING: "Cc1ccc(CNCC2(F)CCN(C(=O)c3ccc(F)c(Cl)c3)CC2)nc1"
  UOM: "µM"
  RECORDED VALUE: 23
- STRUCTURE STRING: "Cc1ccc(CNCC2(F)CCN(C(=O)c3coc4ccccc34)CC2)nc1"
  UOM: "µM"
  RECORDED VALUE: 53

###

# TARGET ENTITY: 5-hydroxytryptamine receptor 1A (Homo sapiens)
# Sequence (P08908 whole entry): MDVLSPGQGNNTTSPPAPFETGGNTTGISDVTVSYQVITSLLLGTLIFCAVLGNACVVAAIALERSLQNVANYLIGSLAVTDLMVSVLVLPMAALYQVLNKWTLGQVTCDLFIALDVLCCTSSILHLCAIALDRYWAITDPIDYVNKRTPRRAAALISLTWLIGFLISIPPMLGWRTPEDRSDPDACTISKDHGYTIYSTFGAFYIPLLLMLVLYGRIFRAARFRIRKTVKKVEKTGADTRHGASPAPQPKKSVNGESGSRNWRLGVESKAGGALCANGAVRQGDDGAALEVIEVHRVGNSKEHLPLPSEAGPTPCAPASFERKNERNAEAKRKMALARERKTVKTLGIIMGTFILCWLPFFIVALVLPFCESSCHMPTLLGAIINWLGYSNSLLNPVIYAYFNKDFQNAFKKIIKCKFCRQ
# ASSAY METHOD TEXT: Intrinsic activity at human 5-HT1A receptor expressed in CHO cells assessed as increase of serotonin-induced [35S]GTPgammaS binding
Friendly reminder: EC50 below 0.03 µM is Fulfilled, at or above is Not fulfilled.

- COMPOUND: "Cc1ccc(CNCC2(F)CCN(C(=O)c3ccc4ccccc4c3)CC2)nc1"
  LABEL VALUE: "Not fulfilled"
- COMPOUND: "Cc1ccc(CNCC2(F)CCN(C(=O)c3ccc(Cl)s3)CC2)nc1"
  LABEL VALUE: "Not fulfilled"
- COMPOUND: "Cc1ccc(CNCC2(F)CCN(C(=O)C34CCCC(CCC3)C4)CC2)nc1"
  LABEL VALUE: "Fulfilled"
- COMPOUND: "CSc1ccc(C(=O)N2CCC(F)(CNCc3ccc(C)cn3)CC2)s1"
  LABEL VALUE: "Not fulfilled"
- COMPOUND: "Cc1ccc(CNCC2(F)CCN(C(=O)C34CC5CC(CC(Cl)(C5)C3)C4)CC2)nc1"
  LABEL VALUE: "Not fulfilled"
- COMPOUND: "Cc1ccc(CNCC2(F)CCN(C(=O)c3sc4sccc4c3Cl)CC2)nc1"
  LABEL VALUE: "Not fulfilled"
- COMPOUND: "COc1cscc1C(=O)N1CCC(F)(CNCc2ccc(C)cn2)CC1"
  LABEL VALUE: "Not fulfilled"
- COMPOUND: "Cc1ccc(CNCC2(F)CCN(C(=O)c3coc4ccccc34)CC2)nc1"
  LABEL VALUE: "Fulfilled"
- COMPOUND: "Cc1ccc(CNCC2(F)CCN(C(=O)c3sccc3C)CC2)nc1"
  LABEL VALUE: "Not fulfilled"
- COMPOUND: "Cc1ccc(CNCC2(O)CCN(C(=O)c3ccc(F)c(Cl)c3)CC2)nc1"
  LABEL VALUE: "Fulfilled"
- COMPOUND: "Cc1ccc(CNCC2(O)CC3CCC(C2)N3C(=O)c2ccsc2)nc1 (stereo unspecified)"
  LABEL VALUE: "Not fulfilled"
- COMPOUND: "Cc1ccc(CNCC2(F)CCN(C(=O)c3csc4ccccc34)CC2)nc1"
  LABEL VALUE: "Fulfilled"
- COMPOUND: "Cc1ccc(CNCC2(F)CCN(C(=O)c3cnn4ccccc34)CC2)nc1"
  LABEL VALUE: "Not fulfilled"
- COMPOUND: "COc1c(C(=O)N2CCC(F)(CNCc3ccc(C)cn3)CC2)csc1Br"
  LABEL VALUE: "Not fulfilled"
- COMPOUND: "Cc1ccc(CNCC2(F)CCN(C(=O)c3ccsc3)CC2)nc1"
  LABEL VALUE: "Fulfilled"
- COMPOUND: "Cc1ccc(CNCC2(F)CCN(C(=O)c3cc(C)cs3)CC2)nc1"
  LABEL VALUE: "Fulfilled"
- COMPOUND: "Cc1ccc(CN(C)CC2(F)CCN(C(=O)c3ccc(F)c(Cl)c3)CC2)nc1"
  LABEL VALUE: "Fulfilled"
- COMPOUND: "Cc1ccc(CNCC2(F)CCN(C(=O)c3ccc(C)s3)CC2)nc1"
  LABEL VALUE: "Not fulfilled"
- COMPOUND: "Cc1ccc(CNCC2(F)CCN(C(=O)c3sc(Br)c4c3OCCO4)CC2)nc1"
  LABEL VALUE: "Not fulfilled"
- COMPOUND: "Cc1ccc(CNCC2(F)CCN(C(=O)c3sccc3Br)CC2)nc1"
  LABEL VALUE: "Fulfilled"
- COMPOUND: "Cc1ccc(CNCC2(F)CCN(C(=O)c3cc4ccccc4[te]3)CC2)nc1"
  LABEL VALUE: "Not fulfilled"
- COMPOUND: "Cc1ccc(CNCC2(F)CCN(C(=O)c3ccoc3)CC2)nc1"
  LABEL VALUE: "Not fulfilled"
- COMPOUND: "Cc1ccc(CNCC2(F)CCN(C(=O)c3ccc4[nH]ccc4c3)CC2)nc1"
  LABEL VALUE: "Not fulfilled"
- COMPOUND: "Cc1ccc(CNCC2(F)CCN(C(=O)c3ccco3)CC2)nc1"
  LABEL VALUE: "Fulfilled"
- COMPOUND: "Cc1ccc(CNCC2(F)CCN(C(=O)C34CC5CC(CC(O)(C5)C3)C4)CC2)nc1"
  LABEL VALUE: "Not fulfilled"
- COMPOUND: "Cc1ccc(CNCC2(F)CCN(C(=O)c3cc4ccccn4n3)CC2)nc1"
  LABEL VALUE: "Not fulfilled"
- COMPOUND: "Cc1ccc(CNCC2(F)CCN(C(=O)c3ccccc3)CC2)nc1"
  LABEL VALUE: "Fulfilled"
- COMPOUND: "Cc1ccc(CNCC2(F)CCN(C(=O)c3cc4ccccc4s3)CC2)nc1"
  LABEL VALUE: "Not fulfilled"
- COMPOUND: "COc1c(C(=O)N2CCC(F)(CNCc3ccc(C)cn3)CC2)csc1Cl"
  LABEL VALUE: "Not fulfilled"

###

# ASSAY METHOD TEXT: Displacement of [3H]WAY-100635 from 5-HT1A receptor in pig cortex membranes
# Type: cell membranes, Sus scrofa
Documented log10 of Ki across a set of compounds
EXPERIMENTAL ENDPOINT: log10 of Ki (log10 of the value in nM)

- COMPOUND: "Cc1ccc(CNCC2(F)CCN(C(=O)c3cc4ccccc4s3)CC2)nc1"
  RECORDED VALUE: 2.28
- COMPOUND: "Cc1ccc(CNCC2(F)CC3CCC(C2)N3C(=O)c2ccccc2)nc1 (configuration not stated)"
  RECORDED VALUE: 2.53
- COMPOUND: "Cc1ccc(CNCC2(F)CCN(C(=O)c3sccc3-n3cccc3)CC2)nc1"
  RECORDED VALUE: 2.56
- COMPOUND: "Cc1ccc(CNCC2(F)CCN(C(=O)c3sc(Br)c4c3OCCO4)CC2)nc1"
  RECORDED VALUE: 1.51
- COMPOUND: "Cc1ccc(CNCC2(F)CCN(C(=O)c3cc4ccsc4s3)CC2)nc1"
  RECORDED VALUE: 1.66
- COMPOUND: "Cc1ccc(CNC[C@@]2(O)C[C@H]3CCC[C@@H](C2)N3C(=O)c2ccccc2)nc1 (stereo in doubt; 41)"
  RECORDED VALUE: 2.18
- COMPOUND: "Cc1ccc(CNCC2(F)CCN(C(=O)c3ccoc3)CC2)nc1"
  RECORDED VALUE: 2.26
- COMPOUND: "Cc1ccc(CNCC2(F)CCN(C(=O)c3ccccc3)CC2)nc1"
  RECORDED VALUE: 1.18
- COMPOUND: "Cc1ccc(CNCC2(F)CCN(C(=O)c3ccc4[nH]ccc4c3)CC2)nc1"
  RECORDED VALUE: 2.58
- COMPOUND: "Cc1ccc(CNCC2(F)CCN(C(=O)c3ccc4[nH]nnc4c3)CC2)nc1"
  RECORDED VALUE: 2.96
- COMPOUND: "Cc1ccc(CNCC2(F)CCN(C(=O)c3cc(Br)c(Br)o3)CC2)nc1"
  RECORDED VALUE: 0.95
- COMPOUND: "Cc1ccc(CNCC2(F)CCN(C(=O)c3ccsc3)CC2)nc1"
  RECORDED VALUE: 1.43
- COMPOUND: "Cc1ccc(CNCC2(F)CCN(C(=O)C34CC5CC(CC3C5)C4)CC2)nc1"
  RECORDED VALUE: 1.04
- COMPOUND: "Cc1ccc(CNCC2(O)CC3CCC(C2)N3C(=O)c2ccc(F)c(Cl)c2)nc1 (configuration not stated)"
  RECORDED VALUE: 1.23
- COMPOUND: "Cc1ccc(CNC[C@@]2(O)C[C@H]3CC[C@@H](C2)N3C(=O)c2ccccc2)nc1 (stereo in doubt; 34)"
  RECORDED VALUE: 2.00
- COMPOUND: "Cc1ccc(CNC[C@@]2(O)C[C@H]3CC[C@@H](C2)N3C(=O)c2ccccc2)nc1 (stereo in doubt; 38)"
  RECORDED VALUE: 1.80
- COMPOUND: "Cc1ccc(CNCC2(F)CC3CCC(C2)N3C(=O)c2ccsc2)nc1 (configuration not stated)"
  RECORDED VALUE: 2.41
